assay-target: T1, HLA-DR13 molecule (DRB1*1301) (human)
T1 construct: HLA class II heterodimer
assay-name: competitive ELISA, tracer B1 21-36
Exercise: for every item that follows, state its recorded log10(IC50).
Field: value | Transform: log10 | Quantity: IC50 | Unit: µM

Worked set:
binder: KEFEETAKKVRRAIE (synthetic 15-mer) [survivin peptide 122-136]
quantity: log10(IC50)
numeric-value: 0.00
//
binder: CAFLSVKKQFEELTL (synthetic 15-mer) [survivin peptide 84-98]
quantity: log10(IC50)
numeric-value: -0.07
//
binder: HRISTFKNWPFLEGC (synthetic 15-mer) [survivin peptide 17-31]
quantity: log10(IC50)
numeric-value: -0.13
//
binder: FEELTLGEFLKLDRE (synthetic 15-mer) [survivin peptide 93-107]
quantity: log10(IC50)
numeric-value: 0.89
//
binder: ISTFKNWPFLEGCAC (synthetic 15-mer) [survivin peptide 19-33]
quantity: log10(IC50)
numeric-value: 0.98

Would you mind listing log10(IC50) for each of the following binders?
1. DPIEEHKKHSSGCAF (synthetic 15-mer) [survivin peptide 72-86]
2. GEFLKLDRERAKNKI (synthetic 15-mer) [survivin peptide 99-113]

stdout:
[1.04, 0.96]
